# Test system: Vero E6
# assayComment: drug sensitivity score (DSS) for viability; higher = more toxic; extreme values may be limits of the assay
# testParameters: 72 h
attributeMeasured: drug sensitivity score

N#Cc1cc2c(OCC(O)CN3CCN(C(c4ccccc4)c4ccccc4)CC3)cccc2[nH]1 (stereo not drawn) = 2.5
O=C(O)c1cc(-c2ccccc2)nc2ccccc12 = 0
CC(C)(C)C(=O)OCOC(=O)[C@@H]1N2C(=O)C[C@H]2S(=O)(=O)C1(C)C = 0
CCC(=O)N1CCOc2c(cc(-c3ccc(OC)c(OC)c3)cc2OC[C@H]2CCCN(C)C2)C1 = 0.5
C[C@H](NCc1ccc(OCc2cccc(F)c2)cc1)C(N)=O [safinamide] = 0
C[N+](C)(C)CC[N+]1(C)Cc2c(Cl)c(Cl)c(Cl)c(Cl)c2C1 [chlorisondamine-diiodide] = 0
CN(C)C(=O)N[C@H]1CC[C@H](CCN2CCN(c3cccc(Cl)c3Cl)CC2)CC1 = 0
CN1C(=O)N(c2ccc(C#N)c(C(F)(F)F)c2)C(=O)[C@]1(CO)c1ccccc1 [GLPG0492-R-enantiomer] = 0

---

# System: Calu-3
# assayComment: cell viability relative to DMSO; higher = less toxic
# testParameters: 72 h; 10000 nM
Below, each of the compounds is paired with its reported cell viability value.
attributeMeasured: cell viability (%)

CC(C)=CCC/C(C)=C/CC/C(C)=C/C=C/C(C)=C/C(=O)O [peretinoin] = 97.6
CN(C)Cc1c(C(=O)NCCOc2ccc(C(=O)NO)cc2)oc2ccccc12 = 8.2
C[C@H]1[C@H](NC(=O)/C(=N\OC(C)(C)C(=O)O)c2csc(N)n2)C(=O)N1S(=O)(=O)O [aztreonam] = 103
N#Cc1ccc(Oc2ccc3c(c2)COB3O)cc1 [crisaborole] = 108
COc1cc(/C=C2\CCCN([C@@H](C)c3ccc(F)cc3)C2=O)ccc1-n1cnc(C)c1 [E-2012] = 114

---

# Test system: Caco-2
# assayComment: cell viability relative to DMSO; higher = less toxic
# testParameters: 72 h; 10 nM
attributeMeasured: cell viability (%)

CN1C(=O)N(c2ccc(C#N)c(C(F)(F)F)c2)C(=O)[C@]1(CO)c1ccccc1 [GLPG0492-R-enantiomer] = 99.5
Cn1cnnc1Sc1c([N+](=O)[O-])ncn1C = 96.3
O=C(O)CCNc1cc(N2CCc3ccccc3CC2)nc(-c2cccnc2)n1 = 100
CCC(=O)O[C@]1(C(=O)CCl)[C@@H](C)C[C@H]2[C@@H]3C[C@H](F)C4=CC(=O)C=C[C@]4(C)[C@@]3(F)[C@@H](O)C[C@@]21C [halobetasol-propionate] = 105
Cc1cc(SCc2sc(-c3ccc(C(F)(F)F)c(F)c3)nc2C)ccc1OCC(=O)O = 101
O=C(NCc1cccc(O)c1)Nc1nc(-c2ccncc2)cs1 = 97
O=C(Nc1ccc(OC(F)(F)F)cc1)c1sccc1NCc1ccnc2ccccc12 = 102
CN1C2CCCC1CC(NC(=O)c1nn(C)c3ccccc13)C2 (centres undefined) = 99.1
CO[C@@H](C)Cn1c(=O)n(C)c2cnc3ccc(-c4cncc(C(C)(C)O)c4)cc3c21 = 93.4

---

# System: Caco-2
# assayComment: cell viability relative to DMSO; higher = less toxic
# testParameters: 72 h; 1000 nM
attributeMeasured: cell viability

CCCCCCCCCCCCCC(=O)[O-].CCCCCCCCCCCCCC(=O)[O-].N[C@@H]1CCCC[C@H]1N.[Pt+2] [miriplatin] = 91.2%
Cc1c(NC(=O)c2cccnc2)c(=O)n(-c2ccccc2)n1C [nifenazone] = 97.1%
CN1[C@@H]2CC[C@H]1C[C@@H](OC(=O)N1Cc3ccccc3NC1=O)C2 [DAU-5884] = 97.3%
COc1ccc2c3c1O[C@H]1C[C@@H](O)C=C[C@@]31CCN(C)C2 [galantamine] = 112%
CC1CCN(CCCC(=O)c2ccc(F)cc2)CC1 [melperone] = 93.5%
